The origin of these recorded values is PubChem BioAssay AID1645883.

Target: Rap guanine nucleotide exchange factor 3 (Homo sapiens)
Experiment: Validation qHTS for agonist of cAMP-regulated guanine nucleotide exchange factor 3 (EPAC1); also: % is scaled to controls: 0 for no effect and ±100 for the full control effect; nearly all actives have a fitted effect of over 70% in size
Conditions: EPAC1 Rap1b BODIPY-GDP exchange, fluorescence; hits give high values, percent of cAMP control response
In all, about 16,000 compounds went through this assay and about 160 (1%) were called active. Roughly 8% stayed inconclusive and do not appear here. The list comes from a sample in which actives are over-represented; it also holds close analogues and randomly drawn compounds.
# max response per record follows

The cases that follow already have their max response on record.
smi=CCCCCCCCCCCC(=O)O[C@H](CC(=O)O)C[N+](C)(C)C measured_endpoint="max response" result="-21.3% (inactive)"
smi=O=C(c1csnn1)N1CCC2(CC1)CN(c1ncccn1)C2 measured_endpoint="max response" result="26.8% (inactive)"
smi=O=C(c1ccco1)N1CCC[C@@]2(CCN(Cc3nccs3)C2)C1 measured_endpoint="max response" result="-63.4% (inactive)"

Param item = "O=C(C[n+]1ccncc1)c1ccc2c(c1)CCCC2" ; retrieve measured max response.
-14.9% (inactive)

* * *

Biological target: Rap guanine nucleotide exchange factor 3 (Homo sapiens) (UniProt O95398)
Sequence (O95398 whole entry, looked up): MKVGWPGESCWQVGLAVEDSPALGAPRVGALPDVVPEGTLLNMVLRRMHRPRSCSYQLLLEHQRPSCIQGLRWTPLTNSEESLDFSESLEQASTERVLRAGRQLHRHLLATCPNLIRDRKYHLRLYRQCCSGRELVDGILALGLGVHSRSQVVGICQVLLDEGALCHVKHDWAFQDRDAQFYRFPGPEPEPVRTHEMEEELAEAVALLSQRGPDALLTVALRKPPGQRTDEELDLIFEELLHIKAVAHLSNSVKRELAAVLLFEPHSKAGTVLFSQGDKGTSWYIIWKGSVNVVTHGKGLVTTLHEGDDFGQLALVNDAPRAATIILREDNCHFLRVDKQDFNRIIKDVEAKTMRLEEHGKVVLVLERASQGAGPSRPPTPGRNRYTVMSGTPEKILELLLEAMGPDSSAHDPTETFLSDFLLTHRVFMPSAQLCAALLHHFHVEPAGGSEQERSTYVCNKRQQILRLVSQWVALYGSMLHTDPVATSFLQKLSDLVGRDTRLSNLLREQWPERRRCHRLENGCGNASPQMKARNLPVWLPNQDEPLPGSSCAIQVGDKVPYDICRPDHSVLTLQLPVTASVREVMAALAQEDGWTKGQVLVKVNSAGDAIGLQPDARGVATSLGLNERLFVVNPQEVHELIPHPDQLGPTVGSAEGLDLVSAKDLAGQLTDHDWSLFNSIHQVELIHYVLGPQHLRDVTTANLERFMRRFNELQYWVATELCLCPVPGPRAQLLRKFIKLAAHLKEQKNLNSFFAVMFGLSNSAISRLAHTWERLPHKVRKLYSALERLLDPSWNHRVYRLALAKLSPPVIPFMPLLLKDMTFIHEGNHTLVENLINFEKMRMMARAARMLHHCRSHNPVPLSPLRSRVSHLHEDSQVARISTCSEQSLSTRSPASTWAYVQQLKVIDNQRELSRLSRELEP
Experiment: Validation qHTS for agonist of cAMP-regulated guanine nucleotide exchange factor 3 (EPAC1); also: % is scaled to controls: 0 for no effect and ±100 for the full control effect; nearly all actives have a fitted effect of over 70% in size
Settings: EPAC1 Rap1b BODIPY-GDP exchange, fluorescence; hits give high values, percent of cAMP control response
The whole screen tested about 16,000 compounds, of which about 160 (1%) were called active. Not shown: some 8% with an inconclusive outcome. The entries come from a sample that favours actives as a whole.
# max response per record follows
Reply with just the number (in %).

The cases that follow already have their max response on record.
compound=CN(Cc1cccc2ncccc12)C(=O)c1cnn(-c2nccc(-c3ccccc3F)n2)c1C1CC1 quantitative_result=-28.3
compound=COCC(=O)N1CCC2(CCCN(c3ccccc3)C2)CC1 quantitative_result=-14.6

Give the reported max response for "O=c1c(-c2ccc(F)cc2)nc2cnc(N3CCOCC3)nc2n1-c1ccccc1" (system: Rap guanine nucleotide exchange factor 3 (Homo sapiens) (UniProt O95398)).
-86.9

Give the reported max response for "CCS(=O)(=O)Nc1cc(C(=O)N2C[C@@H](C)O[C@@H](C)C2)c2c(c1)nc(-c1ccccc1)n2C" (system: Rap guanine nucleotide exchange factor 3 (Homo sapiens) (UniProt O95398)).
19.2

Give the reported max response for "c1ccc2c(Nc3ccncc3)nc(-c3ccc4c(c3)OCO4)nc2c1" (system: Rap guanine nucleotide exchange factor 3 (Homo sapiens) (UniProt O95398)).
10.9

Give the reported max response for "CS(=O)(=O)N1CCC2(CC1)CN(Cc1ccccc1)C2" (system: Rap guanine nucleotide exchange factor 3 (Homo sapiens) (UniProt O95398)).
-14.5

Give the reported max response for "Cc1nc2cnc(Oc3cccc(Cl)c3)nc2n(C2CC2)c1=O" (system: Rap guanine nucleotide exchange factor 3 (Homo sapiens) (UniProt O95398)).
-12.8

Give the reported max response for "CN(C)c1ccc(CN2CCOc3ccc(CN4CCC(O)(c5cccnc5)CC4)cc3C2)cc1" (system: Rap guanine nucleotide exchange factor 3 (Homo sapiens) (UniProt O95398)).
-6.57

Give the reported max response for "CC1(C)S[C@@H]2[C@H](N=CN3CCCCCC3)C(=O)N2[C@H]1C(=O)O" (system: Rap guanine nucleotide exchange factor 3 (Homo sapiens) (UniProt O95398)).
-11.7

Give the reported max response for "CC(C)NC(=O)N1CC[C@@]2(CCCN(C(=O)c3cccc(F)c3)C2)C1" (system: Rap guanine nucleotide exchange factor 3 (Homo sapiens) (UniProt O95398)).
17.8

* * *

Target: Rap guanine nucleotide exchange factor 3 (Homo sapiens)
Test: Validation qHTS for agonist of cAMP-regulated guanine nucleotide exchange factor 3 (EPAC1); also: % is scaled to controls: 0 for no effect and ±100 for the full control effect; nearly all actives have a fitted effect of over 70% in size
Conditions: EPAC1 Rap1b BODIPY-GDP exchange, fluorescence; hits give high values, percent of cAMP control response
In all, about 16,000 compounds went through this assay and about 160 (1%) were called active. Not shown: some 8% with an inconclusive outcome. The sample as a whole holds a higher share of actives than the screen did.
# max response per record follows
Reply with just the number (in %).

The cases that follow already have their max response on record.
compound=C=C1C(=CC=C2CCC[C@]3(C)[C@@H]([C@H](C)C=C[C@H](C)C(C)C)CC[C@@H]23)C[C@@H](O)C[C@@H]1O measured_endpoint="max response" units_symbol=% quantitative_result=-167
compound=Cc1nc2cc(NC(=O)[C@@H]3C[C@@H](Sc4ccccn4)CN3Cc3ccccc3C)ccc2s1 measured_endpoint="max response" units_symbol=% quantitative_result=16.2
compound=CNc1cc(-c2c(C)noc2C)ncn1 measured_endpoint="max response" units_symbol=% quantitative_result=2.2
compound=O=C(c1cnccn1)N1CCC2(CCCN(Cc3ccccc3)C2)CC1 measured_endpoint="max response" units_symbol=% quantitative_result=-21.3

Param item = "CC(=O)Nc1ccc(SC[C@H](Cc2ccccc2)N2CC[C@@H](C)CCC2=O)cc1" ; retrieve measured max response.
-7.47

Param item = "COCCNc1ncnc2ccc(-c3cccnc3)cc12" ; retrieve measured max response.
-29.2

Param item = Cc1cc(C(=O)NCC2Cc3cccc(-c4cncnc4)c3O2)c(C)o1 (stereo unspecified) ; retrieve measured max response.
3.15

Param item = Cc1[nH]c2c(C(=O)NCC3Cc4cccc(-c5cccnc5)c4O3)cccc2c1C (stereo unspecified) ; retrieve measured max response.
19.3

Param item = "CS(=O)(=O)N1CCC[C@@]2(CCN(c3ccncc3)C2)C1" ; retrieve measured max response.
-34

Param item = COc1cc(C)c(CN2CCc3nnc(C(C)NC(=O)c4cccnc4)n3CC2)cc1C (stereo unspecified) ; retrieve measured max response.
12.1

Param item = "Nc1ncnc2c1c(I)cn2[C@@H]1C[C@H](N)[C@@H](O)[C@H]1O" ; retrieve measured max response.
-1.21

Param item = COc1ccc(CN2CCOc3c(cc(-c4ncc(C(F)(F)F)cc4Cl)cc3OCC3CCCO3)C2)c(O)c1 (stereo unspecified) ; retrieve measured max response.
-26

Param item = COC(=O)c1ccccc1-c1cc(C)cc2c1OC(CNC(=O)C1CCOC1)C2 (stereo unspecified) ; retrieve measured max response.
15.3

Param item = "N#CCCn1c(=O)c(-c2cc(F)cc(F)c2)nc2cnc(Oc3ccccc3)nc21" ; retrieve measured max response.
3.54

Param item = "COc1ccccc1-c1cc(NCc2cccs2)ncn1" ; retrieve measured max response.
-0.282

Param item = "Clc1ccccc1-c1cc(NCCN2CCOCC2)ncn1" ; retrieve measured max response.
-6.13

* * *

Molecular target: Rap guanine nucleotide exchange factor 3 (Homo sapiens) (UniProt O95398)
Experiment: Validation qHTS for agonist of cAMP-regulated guanine nucleotide exchange factor 3 (EPAC1); also: % is scaled to controls: 0 for no effect and ±100 for the full control effect; nearly all actives have a fitted effect of over 70% in size
Conditions: EPAC1 Rap1b BODIPY-GDP exchange, fluorescence; hits give high values, percent of cAMP control response
In all, about 16,000 compounds went through this assay and about 160 (1%) were called active. Not shown: some 8% with an inconclusive outcome. The sample as a whole holds a higher share of actives than the screen did.
# max response per record follows
Reply with just the number (in %).

compound=COc1ccccc1CNc1cc(-c2ccccc2CN(C)C)ncn1 quantitative_result=-35.4
compound="CC(C(=O)O)c1ccc(C2CCCCC2)c2ccccc12 (stereo unspecified)" quantitative_result=5.84

Param item = "COc1ccc(-c2nc3cnc(OC)nc3n(Cc3ccc(F)cc3)c2=O)cc1" ; retrieve measured max response.
-45.5

Param item = "C=C1CC[C@H](O)CC1=C/C=C1\CCC[C@]2(C)[C@@H]([C@H](C)/C=C/[C@H](C)C(C)C)CC[C@@H]12" ; retrieve measured max response.
-127

Param item = "O=c1c(-c2ccc(F)c(F)c2)nc2cncnc2n1-c1ccccc1" ; retrieve measured max response.
-25.2

Param item = "COCCNc1ccnc(-c2cccc(NS(C)(=O)=O)c2)n1" ; retrieve measured max response.
-9.71
